cAMP EC50 listing for selected binders.
# target-entity: T1, rat parathyroid hormone receptor 1, wild-type (rPTHR-1) (rat, UniProt P25961 27-591)
# T1 sequence (looked up): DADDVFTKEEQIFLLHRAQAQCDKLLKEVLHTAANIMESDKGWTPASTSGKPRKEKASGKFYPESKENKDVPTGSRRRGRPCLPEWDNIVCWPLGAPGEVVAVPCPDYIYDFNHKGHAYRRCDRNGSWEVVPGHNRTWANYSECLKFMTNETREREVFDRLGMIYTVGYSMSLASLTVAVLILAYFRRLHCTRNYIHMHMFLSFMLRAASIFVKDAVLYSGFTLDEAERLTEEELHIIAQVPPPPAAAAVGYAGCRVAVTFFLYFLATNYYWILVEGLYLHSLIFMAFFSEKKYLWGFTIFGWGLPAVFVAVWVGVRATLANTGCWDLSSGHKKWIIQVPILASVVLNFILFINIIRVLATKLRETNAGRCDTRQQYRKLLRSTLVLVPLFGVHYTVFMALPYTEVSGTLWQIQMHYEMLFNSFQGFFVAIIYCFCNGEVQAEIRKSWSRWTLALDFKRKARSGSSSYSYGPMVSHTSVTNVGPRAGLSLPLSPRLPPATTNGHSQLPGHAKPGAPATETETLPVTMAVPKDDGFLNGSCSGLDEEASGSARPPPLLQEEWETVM
# protocol-details: cell-based or functional assay
Non-standard residues stand in square brackets, D forms with d. No end group written: not given here. β3hW = N[C@H](CC(=O)O)Cc1c[nH]c2ccccc12; β3hE = N[C@@H](CCC(=O)O)CC(=O)O; β3hF = N[C@H](CC(=O)O)Cc1ccccc1; β3hK = NCCCC[C@H](N)CC(=O)O; β3hM = CSCC[C@H](N)CC(=O)O; β3hD = NC(CC(=O)O)CC(=O)O
Number only, in nM; omit the unit.

Use the examples below as a reference point.
[[record]]
binder = "SVSEIQLMHNLGKWLNSMERVEWLRKKLQDVHNF-NH2 (not fully specified (residue 14); printed as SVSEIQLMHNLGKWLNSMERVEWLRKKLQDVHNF-NH2; also: seven β3 residues, positions not given here in text, also called α/β-peptide D7) [D7]"
result_units = "nM"
result = 1.62

[[record]]
binder = "SVSEIQLMHNLGK[β3hW]LNS[β3hM]ERV[β3hE]WLR[β3hK]KLQ[β3hD]VHN[β3hF]-NH2 (also called α/β-peptide D6) [D6]"
result_units = "nM"
result = 0.33


Ask: If you can, please state the reported cAMP EC50 value of SVSEIQLMHNLGKHLNSMERVEWLRKKLQDVQNF-NH2 (not fully specified (residue 32); printed as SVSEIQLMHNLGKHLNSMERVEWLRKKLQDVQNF-NH2; also: three β3 residues, positions not given here in text, also called α/β-peptide B3) [B3] .
Result: 0.55

Ask: If you can, please state the reported cAMP EC50 value of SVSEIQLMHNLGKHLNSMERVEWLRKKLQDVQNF-NH2 (not fully specified (residues 20, 24, 28, 32); printed as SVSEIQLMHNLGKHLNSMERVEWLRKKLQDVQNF-NH2; also: five β3 residues, positions not given here in text, also called α/β-peptide B5) [B5] .
Result: 1.45

The reported numbers originate from patent US20140378382A1.
